# SYSTEM: P. falciparum apicoplast DNA polymerase (Pf-apPOL) (Plasmodium falciparum, UniProt Q8ILY1)
# Sequence (Q8ILY1 entry or part of it): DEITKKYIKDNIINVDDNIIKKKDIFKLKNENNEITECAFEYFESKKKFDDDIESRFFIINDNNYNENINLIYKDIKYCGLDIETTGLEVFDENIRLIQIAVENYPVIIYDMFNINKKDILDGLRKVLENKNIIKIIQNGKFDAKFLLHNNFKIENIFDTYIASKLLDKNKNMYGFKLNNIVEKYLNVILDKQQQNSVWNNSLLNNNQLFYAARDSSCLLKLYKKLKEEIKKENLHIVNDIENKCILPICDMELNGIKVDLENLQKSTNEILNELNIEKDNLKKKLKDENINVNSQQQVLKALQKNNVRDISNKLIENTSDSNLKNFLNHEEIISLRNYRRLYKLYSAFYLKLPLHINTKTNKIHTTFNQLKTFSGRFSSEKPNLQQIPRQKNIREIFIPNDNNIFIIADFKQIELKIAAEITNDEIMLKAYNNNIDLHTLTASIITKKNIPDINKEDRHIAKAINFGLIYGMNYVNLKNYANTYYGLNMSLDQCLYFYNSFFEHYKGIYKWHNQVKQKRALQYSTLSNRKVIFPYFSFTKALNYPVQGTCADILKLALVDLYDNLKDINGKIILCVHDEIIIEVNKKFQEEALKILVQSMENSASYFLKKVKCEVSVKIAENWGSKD
# ASSAY_REMARKS: Fluorescence-based high-throughput DNA polymerase assay (molecular beacon), primary screen and dose-response
# Format: biochemical
# EXPERIMENTAL_PARAMETERS: DRC-2, 5', concentration 40

[
  {
    "COMPOUND": "O=C(Nc1nnc(-c2cccs2)o1)c1ccc([N+](=O)[O-])o1",
    "% inhibition Apo pol 5' (%)": 61
  },
  {
    "COMPOUND": "Oc1ccc(N=Nc2ccccc2)c(O)c1",
    "% inhibition Apo pol 5' (%)": 44
  },
  {
    "COMPOUND": "O=C(O)CC1SC(c2ccc3c(c2)OCO3)=NC1=O (centres unmarked)",
    "% inhibition Apo pol 5' (%)": 41
  },
  {
    "COMPOUND": "O=C(c1c[nH]c2ncccc12)N1CCCCCC1 [Molecule 51, O=C(c1c[nH]c2c1cccn2)N1CCCCCC1]",
    "% inhibition Apo pol 5' (%)": 34
  },
  {
    "COMPOUND": "O=C(Nc1ncc([N+](=O)[O-])s1)c1ccc2c(c1)C(=O)N(N1C(=O)c3ccccc3C1=O)C2=O",
    "% inhibition Apo pol 5' (%)": 51
  }
]

Source listed as paper PMC9090415.
